Values from BindingDB's records for patent US20250059188

target: Mixed lineage kinase domain-like protein (Homo sapiens, UniProt Q8NB16)
Sequence (Q8NB16 whole entry, the tested form may be a part): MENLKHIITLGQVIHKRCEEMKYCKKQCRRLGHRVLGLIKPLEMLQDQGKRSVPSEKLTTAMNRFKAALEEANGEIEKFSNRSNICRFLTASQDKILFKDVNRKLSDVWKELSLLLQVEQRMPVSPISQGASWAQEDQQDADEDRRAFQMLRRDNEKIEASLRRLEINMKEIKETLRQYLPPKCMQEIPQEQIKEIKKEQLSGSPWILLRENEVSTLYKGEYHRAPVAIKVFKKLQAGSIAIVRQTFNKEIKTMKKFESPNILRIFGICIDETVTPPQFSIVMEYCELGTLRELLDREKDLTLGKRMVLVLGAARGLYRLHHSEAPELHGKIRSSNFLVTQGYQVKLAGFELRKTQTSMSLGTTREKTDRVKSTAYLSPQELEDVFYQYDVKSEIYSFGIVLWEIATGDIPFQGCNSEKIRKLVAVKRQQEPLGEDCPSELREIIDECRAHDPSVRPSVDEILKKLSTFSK
value.kind: Kd

>>> result("Cn1nc(-c2ccc(NS(=O)(=O)C(F)F)c(OCc3ccc(F)cc3)c2)c2c(N)ncc(-c3ccncc3)c21")
"< 1 nM"

* * *

Target: Receptor-interacting serine/threonine-protein kinase 1 (Homo sapiens)
Sequence (Q13546 whole entry): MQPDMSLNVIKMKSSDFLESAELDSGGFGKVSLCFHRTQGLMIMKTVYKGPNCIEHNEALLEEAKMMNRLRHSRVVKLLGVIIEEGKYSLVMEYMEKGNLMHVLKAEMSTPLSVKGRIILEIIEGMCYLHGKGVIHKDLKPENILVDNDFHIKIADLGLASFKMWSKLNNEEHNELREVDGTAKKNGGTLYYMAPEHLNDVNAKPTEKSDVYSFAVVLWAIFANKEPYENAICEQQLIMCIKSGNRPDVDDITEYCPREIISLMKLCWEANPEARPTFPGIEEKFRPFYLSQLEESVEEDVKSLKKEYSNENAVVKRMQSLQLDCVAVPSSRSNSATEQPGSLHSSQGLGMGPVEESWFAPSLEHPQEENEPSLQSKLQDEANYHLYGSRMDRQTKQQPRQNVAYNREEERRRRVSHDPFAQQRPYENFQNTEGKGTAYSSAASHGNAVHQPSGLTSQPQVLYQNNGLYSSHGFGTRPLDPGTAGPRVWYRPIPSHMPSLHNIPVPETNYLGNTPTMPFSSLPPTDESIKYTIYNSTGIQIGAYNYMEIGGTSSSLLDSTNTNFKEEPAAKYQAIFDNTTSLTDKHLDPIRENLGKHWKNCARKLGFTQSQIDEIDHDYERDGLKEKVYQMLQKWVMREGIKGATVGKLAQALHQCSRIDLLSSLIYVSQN
value.kind: Kd

>>> result("C[C@H](Oc1cc(-c2nn(C)c3c(-c4cnn(C5CCN(C)C(C(F)F)C5)c4)cnc(N)c23)ccc1NS(=O)(=O)C(F)F)c1ccc(F)cc1 (stereo partly specified) [US20250059188, Compound 158]")
"> 10 µM"
